# credit: the supplement of paper PMC3334620

- tested.system: Yer064c (UniProt P40041)
- Sequence: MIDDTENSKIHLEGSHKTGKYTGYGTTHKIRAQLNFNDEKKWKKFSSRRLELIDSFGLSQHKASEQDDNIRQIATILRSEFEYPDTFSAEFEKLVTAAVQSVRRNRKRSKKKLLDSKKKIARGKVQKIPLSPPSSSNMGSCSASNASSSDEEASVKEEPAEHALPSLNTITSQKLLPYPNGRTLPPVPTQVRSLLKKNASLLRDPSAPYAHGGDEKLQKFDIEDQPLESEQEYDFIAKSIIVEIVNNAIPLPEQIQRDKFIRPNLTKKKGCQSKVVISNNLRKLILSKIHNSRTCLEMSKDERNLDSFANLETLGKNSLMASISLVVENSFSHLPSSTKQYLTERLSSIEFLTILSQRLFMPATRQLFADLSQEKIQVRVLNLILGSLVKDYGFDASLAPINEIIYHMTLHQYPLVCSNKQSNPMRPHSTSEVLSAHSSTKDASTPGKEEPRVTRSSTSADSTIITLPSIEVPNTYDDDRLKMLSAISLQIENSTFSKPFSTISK
- experiment: PBM E-score (8-mer binding enrichment) (E-score (-0.5 to 0.5)); higher = stronger / more preferred TF binding
- measurement.context: protein concentration: 200 nM; construct: GST-full length
The full ranking holds about 33,000 sequences; the median of “E-score (-0.5 to 0.5)” is about -0.036, and the highest 2% start at about 0.37. This excerpt belongs to a sample that is enriched for the highest values.

macromolecule.sequence | tested.system | PBM E-score
ATTAGGCC | Yer064c (UniProt P40041) | 0.00222
AGAATCCC | Yer064c (UniProt P40041) | 0.0788
AACTAGCG | Yer064c (UniProt P40041) | -0.119
CATAGTGG | Yer064c (UniProt P40041) | -0.088
AAGTAGTC | Yer064c (UniProt P40041) | 0.415
CTACTGAG | Yer064c (UniProt P40041) | 0.157
CGAGACAC | Yer064c (UniProt P40041) | 0.13
ACGAGAGC | Yer064c (UniProt P40041) | -0.143
CTGCACCC | Yer064c (UniProt P40041) | -0.223
TGACTTAA | Yer064c (UniProt P40041) | 0.435
ACAATCAT | Yer064c (UniProt P40041) | 0.385
AATAGTCA | Yer064c (UniProt P40041) | 0.478
AGAGACTC | Yer064c (UniProt P40041) | 0.386

----------
- tested.system: Yer064c (UniProt P40041)
- Sequence: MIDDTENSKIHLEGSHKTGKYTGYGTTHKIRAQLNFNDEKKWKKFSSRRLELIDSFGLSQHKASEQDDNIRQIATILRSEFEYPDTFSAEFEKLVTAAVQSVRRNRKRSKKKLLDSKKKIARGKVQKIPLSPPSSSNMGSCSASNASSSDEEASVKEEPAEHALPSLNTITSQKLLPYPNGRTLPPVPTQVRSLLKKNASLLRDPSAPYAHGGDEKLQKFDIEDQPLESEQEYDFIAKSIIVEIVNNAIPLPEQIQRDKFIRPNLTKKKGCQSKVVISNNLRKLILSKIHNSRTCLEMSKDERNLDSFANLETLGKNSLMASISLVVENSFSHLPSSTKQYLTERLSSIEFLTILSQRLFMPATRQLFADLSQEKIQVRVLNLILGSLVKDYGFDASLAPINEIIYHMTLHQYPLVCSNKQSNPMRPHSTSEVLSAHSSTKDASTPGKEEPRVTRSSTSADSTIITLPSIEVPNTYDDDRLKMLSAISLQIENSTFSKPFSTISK
- experiment: PBM E-score (8-mer binding enrichment) (E-score (-0.5 to 0.5)); higher = stronger / more preferred TF binding
- measurement.context: protein concentration: 200 nM; construct: GST-full length
The full ranking holds about 33,000 sequences; the median of “E-score (-0.5 to 0.5)” is about -0.036, and the highest 2% start at about 0.37. Shown is part of a subset that was picked to be rich in the highest values.
measured.endpoint: PBM E-score

macromolecule.sequence | readout.value
ATCGATGC | -0.198
CAGGAGTC | 0.394
ACCTTCGA | 0.00431

----------
- tested.system: Yer064c (UniProt P40041)
- Sequence: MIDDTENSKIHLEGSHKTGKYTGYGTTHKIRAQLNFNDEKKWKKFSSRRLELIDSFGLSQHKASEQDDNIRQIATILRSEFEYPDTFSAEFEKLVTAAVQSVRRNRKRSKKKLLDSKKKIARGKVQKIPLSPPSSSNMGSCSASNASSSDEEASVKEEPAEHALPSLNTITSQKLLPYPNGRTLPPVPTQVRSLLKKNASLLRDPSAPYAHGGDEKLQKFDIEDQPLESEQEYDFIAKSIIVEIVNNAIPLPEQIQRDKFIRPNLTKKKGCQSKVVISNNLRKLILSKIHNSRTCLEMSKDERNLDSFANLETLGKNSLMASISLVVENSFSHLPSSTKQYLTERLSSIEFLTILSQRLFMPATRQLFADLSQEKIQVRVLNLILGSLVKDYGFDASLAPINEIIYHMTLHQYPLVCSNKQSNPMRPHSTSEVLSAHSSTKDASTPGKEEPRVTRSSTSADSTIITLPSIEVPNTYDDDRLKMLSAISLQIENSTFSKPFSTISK
- experiment: PBM E-score (8-mer binding enrichment) (E-score (-0.5 to 0.5)); higher = stronger / more preferred TF binding
- measurement.context: protein concentration: 200 nM; construct: GST-full length
Whole data set: some 33,000 sequences, median “E-score (-0.5 to 0.5)” near -0.036, cut for the highest 2% near 0.37. The sample holds the highest values, similar sequences and a random draw of the others, so the mix is not that of the screen.
measured.endpoint: PBM E-score

macromolecule.sequence | readout.value
ACTCATCC | 0.455
CCTCATCC | -0.323
GTACTCAA | 0.314
GGCGCGAA | -0.0884

----------
- tested.system: Yer064c (UniProt P40041)
- Sequence: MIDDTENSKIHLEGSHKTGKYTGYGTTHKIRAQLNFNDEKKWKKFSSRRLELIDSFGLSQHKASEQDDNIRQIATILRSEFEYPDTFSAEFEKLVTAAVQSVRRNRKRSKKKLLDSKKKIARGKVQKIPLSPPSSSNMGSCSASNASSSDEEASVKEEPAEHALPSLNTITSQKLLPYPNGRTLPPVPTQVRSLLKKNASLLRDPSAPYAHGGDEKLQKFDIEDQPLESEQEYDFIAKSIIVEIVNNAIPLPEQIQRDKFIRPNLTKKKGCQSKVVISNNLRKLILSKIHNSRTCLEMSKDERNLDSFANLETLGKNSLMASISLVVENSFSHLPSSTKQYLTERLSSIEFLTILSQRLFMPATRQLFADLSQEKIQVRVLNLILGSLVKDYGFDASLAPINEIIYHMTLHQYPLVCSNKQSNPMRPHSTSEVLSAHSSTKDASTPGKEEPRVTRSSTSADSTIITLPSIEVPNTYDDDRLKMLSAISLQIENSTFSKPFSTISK
- experiment: PBM E-score (8-mer binding enrichment) (E-score (-0.5 to 0.5)); higher = stronger / more preferred TF binding
- measurement.context: protein concentration: 200 nM; construct: GST-full length
Whole data set: some 33,000 sequences, median “E-score (-0.5 to 0.5)” near -0.036, cut for the highest 2% near 0.37. What follows is part of a selection rich in the highest values, with near analogues and random picks from the rest.
Classify by PBM E-score. Ranges: 1 (below -0.0009), 2 (-0.0009 to below 0.2), 3 (0.2 or more)

macromolecule.sequence | answer.label
ATGATACA | 3
AACTCTGA | 2
AACGACTA | 3
ATTGGCTA | 2
ATGACCGG | 1
GATGGCTA | 3
CTCGGTGA | 2
GCGTCACA | 1
CCGTTCGA | 2
TCGGATCA | 1
ATGCTTTG | 2
AACACACC | 2
ATCAATCA | 3
AAGTCACT | 3
GGACGTCA | 1
ATCAATCC | 1
GTGGTTAA | 3
GTCAATCA | 3
AAAGTCAC | 3
TCCCTTCA | 2
CCCAGCTA | 1
CGAGCCGC | 1
AGGTGCAC | 1
ATGGTTAA | 3
ACACGACC | 1
CGGTTACC | 2
AAAGTCAG | 3
AACGGGAT | 1
AACTATAC | 2
AACGAGAC | 2
AGATGGTC | 1
GAGTCACA | 3
GTCGACTA | 3
CGATTCTA | 2
AGCAACTG | 1
GGACGACC | 1
AACTATAA | 2
